# STUDY_SYSTEM: ErbB2 kinase (Homo sapiens)
# Sequence (P04626 23-1255): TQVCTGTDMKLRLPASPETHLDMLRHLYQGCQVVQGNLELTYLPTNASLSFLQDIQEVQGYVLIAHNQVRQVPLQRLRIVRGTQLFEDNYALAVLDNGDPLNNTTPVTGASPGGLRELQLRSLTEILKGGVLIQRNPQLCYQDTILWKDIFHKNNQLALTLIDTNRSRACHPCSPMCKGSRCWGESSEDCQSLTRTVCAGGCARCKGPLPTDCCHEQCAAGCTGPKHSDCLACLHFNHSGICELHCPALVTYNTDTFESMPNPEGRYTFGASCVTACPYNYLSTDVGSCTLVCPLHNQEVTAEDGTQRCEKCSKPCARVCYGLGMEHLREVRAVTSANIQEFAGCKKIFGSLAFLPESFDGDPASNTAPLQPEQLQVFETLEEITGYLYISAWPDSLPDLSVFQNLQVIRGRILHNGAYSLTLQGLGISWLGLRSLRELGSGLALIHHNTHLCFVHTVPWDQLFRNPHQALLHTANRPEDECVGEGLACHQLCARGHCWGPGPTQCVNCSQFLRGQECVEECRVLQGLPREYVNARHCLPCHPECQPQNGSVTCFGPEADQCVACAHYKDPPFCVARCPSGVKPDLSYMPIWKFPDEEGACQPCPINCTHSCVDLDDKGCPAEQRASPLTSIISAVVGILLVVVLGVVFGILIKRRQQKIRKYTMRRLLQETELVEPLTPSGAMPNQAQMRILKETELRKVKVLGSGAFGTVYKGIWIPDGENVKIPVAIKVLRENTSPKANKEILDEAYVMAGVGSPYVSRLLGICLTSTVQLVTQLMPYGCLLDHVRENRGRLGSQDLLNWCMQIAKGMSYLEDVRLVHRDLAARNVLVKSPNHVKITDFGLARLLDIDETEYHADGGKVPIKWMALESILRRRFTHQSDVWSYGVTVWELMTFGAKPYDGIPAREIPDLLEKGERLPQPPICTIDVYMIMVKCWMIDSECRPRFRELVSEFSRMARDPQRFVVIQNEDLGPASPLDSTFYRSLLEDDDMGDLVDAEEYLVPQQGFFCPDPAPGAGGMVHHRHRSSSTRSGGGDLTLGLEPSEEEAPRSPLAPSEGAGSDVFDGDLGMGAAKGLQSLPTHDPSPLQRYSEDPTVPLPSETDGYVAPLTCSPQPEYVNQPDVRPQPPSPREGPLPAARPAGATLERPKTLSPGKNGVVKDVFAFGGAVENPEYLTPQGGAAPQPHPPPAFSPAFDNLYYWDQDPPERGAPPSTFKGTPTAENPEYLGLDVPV
# PROTOCOL_DESCRIPTION: Enzymatic experiment on ErbB2 (HTRF kinEASE-TK)
# Assay type: biochemical
# PARTICULARS: ATP 4 μM; read-out: Kinase IC50 (nM) in vitro ErbB2

# COMPOUND, STUDY_SYSTEM, IC50 / nM
measured = [
    ("Cc1cc(Nc2ncnc3ccc(NC4=NC(C)(C)CO4)cc23)ccc1Oc1ccn2nccc2n1 [reference compound]", "ErbB2 kinase (Homo sapiens)", 49.4),
    ("Cc1cc(Nc2ncnc3ccc(-c4cccc(NC(=O)/C=C/CN(C)C)c4)cc23)ccc1Oc1cc2nncn2cn1", "ErbB2 kinase (Homo sapiens)", 4.9),
    ("Cc1cc(Nc2ncnc3ccc(NC4=NC5(CCOCC5)CO4)cc23)ccc1Oc1cc2nncn2cn1", "ErbB2 kinase (Homo sapiens)", 2.6),
    ("Cc1cc(Nc2ncnc3ccc(NC4=N[C@@H](C)CO4)cc23)ccc1Oc1cc2nncn2cn1", "ErbB2 kinase (Homo sapiens)", 7.8),
    ("Cc1cc(Nc2ncnc3ccc(NC(=S)NCC(C)(C)O)cc23)ccc1Oc1cc2nncn2cn1", "ErbB2 kinase (Homo sapiens)", 9.4),
    ("C=C(F)C(=O)N1CCC(Oc2cc3c(Nc4ccc(Oc5cc6nncn6cn5)c(C)c4)ncnc3cc2OC)CC1", "ErbB2 kinase (Homo sapiens)", 5.2),
    ("Cc1cc(Nc2ncnc3ccc(NC4=NCC(C)O4)cc23)ccc1Oc1cc2nncn2cn1 (stereo not drawn)", "ErbB2 kinase (Homo sapiens)", 4.1),
    ("Cc1cc(Nc2ncnc3ccc(NC4=NCC(F)(F)CO4)cc23)ccc1Oc1cc2nncn2cn1", "ErbB2 kinase (Homo sapiens)", 9.26),
    ("Cc1cc(Nc2ncnc3ccc(NC(=S)NC(C)(C)CO)cc23)ccc1Oc1cc2nncn2cn1", "ErbB2 kinase (Homo sapiens)", 21.5),
    ("Cc1cc(Nc2ncnc3ccc(NC4=NC(C)(C)CO4)cc23)ccc1Oc1cc2ncnn2cn1", "ErbB2 kinase (Homo sapiens)", 16.7),
    ("Cc1cc(Nc2ncnc3ccc(NC4=NCC5(CCOCC5)O4)cc23)ccc1Oc1cc2nncn2cn1", "ErbB2 kinase (Homo sapiens)", 12),
    ("Cc1cc(Nc2ncnc3ccc(-c4ccc(N)nn4)cc23)ccc1Oc1cc2nncn2cn1", "ErbB2 kinase (Homo sapiens)", 8.59),
    ("CCNC(=O)Nc1cccc(-c2ccc3ncnc(Nc4ccc(Oc5cc6nncn6cn5)c(C)c4)c3c2)c1", "ErbB2 kinase (Homo sapiens)", 3.6),
    ("Cc1cc(Nc2ncnc3ccc(NC(=S)NCC(C)(C)N)cc23)ccc1Oc1cc2nncn2cn1", "ErbB2 kinase (Homo sapiens)", 13.2),
    ("Cc1cc(Nc2ncnc3ccc(NC4=NC(C)(C)CS4)cc23)ccc1Oc1cc2nncn2cn1", "ErbB2 kinase (Homo sapiens)", 7.4),
    ("Cc1cc(NC(=O)Nc2ccc3ncnc(Nc4ccc(Oc5cc6nncn6cn5)c(C)c4)c3c2)no1", "ErbB2 kinase (Homo sapiens)", 3.2),
    ("Cc1cc(Nc2ncnc3ccc(-c4ccc(CN5CCN(S(C)(=O)=O)CC5)o4)cc23)ccc1Oc1cc2nncn2cn1", "ErbB2 kinase (Homo sapiens)", 4.1),
    ("Cc1cc(Nc2ncnc3ccc(Br)cc23)ccc1Oc1cc2nncn2cn1", "ErbB2 kinase (Homo sapiens)", 12.9),
    ("Cc1cc(Nc2ncnc3ccc(NC4=NC5(CO4)CC(F)(F)C5)cc23)ccc1Oc1cc2nncn2cn1", "ErbB2 kinase (Homo sapiens)", 1.3),
    ("Cc1cc(Nc2ncnc3ccc(NC(=O)OC[C@@H]4COCCN4)cc23)ccc1Oc1cc2nncn2cn1", "ErbB2 kinase (Homo sapiens)", 4.3),
    ("CC(=O)C(=O)Nc1ccc2ncnc(Nc3ccc(Oc4cc5nncn5cn4)c(C)c3)c2c1", "ErbB2 kinase (Homo sapiens)", 14.8),
    ("Cc1cc(Nc2ncnc3ccc(-c4ccc(CO)o4)cc23)ccc1Oc1cc2nncn2cn1", "ErbB2 kinase (Homo sapiens)", 1.1),
    ("Cc1cc(Nc2ncnc3ccc(-c4ccc(CN(C)CCS(C)(=O)=O)o4)cc23)ccc1Oc1cc2nncn2cn1", "ErbB2 kinase (Homo sapiens)", 1.2),
    ("Cc1cc(Nc2ncnc3ccc(NC4=NC(C)(C)CO4)cc23)cc(C)c1Oc1cc2nncn2cn1", "ErbB2 kinase (Homo sapiens)", 6.7),
    ("C=CC(=O)Nc1ccc2ncnc(Nc3ccc(Oc4cc5nncn5cn4)c(C)c3)c2c1", "ErbB2 kinase (Homo sapiens)", 2.8),
    ("Cc1cc(Nc2ncnc3ccc(-c4ccc(CNCCS(C)(=O)=O)n4C)cc23)ccc1Oc1cc2nncn2cn1", "ErbB2 kinase (Homo sapiens)", 4.4),
    ("C=C(F)C(=O)Nc1cc2c(Nc3ccc(Oc4cc5nncn5cn4)c(C)c3)ncnc2cc1F", "ErbB2 kinase (Homo sapiens)", 3.4),
    ("Cc1cc(Nc2ncnc3ccc(-n4cccc4)cc23)ccc1Oc1cc2nncn2cn1", "ErbB2 kinase (Homo sapiens)", 2.3),
    ("Cc1cc(Nc2ncnc3ccc(NC4=N[C@H](C)CO4)cc23)ccc1Oc1cc2nncn2cn1", "ErbB2 kinase (Homo sapiens)", 8.1),
    ("Cc1cc(Nc2ncnc3ccc(NC4=N[C@@H](C(C)C)CO4)cc23)ccc1Oc1cc2nncn2cn1", "ErbB2 kinase (Homo sapiens)", 2.76),
]
